test system: Wild type; test: S. aureus survival, RN4220 and DeltatarO strains – OD600, teichoic acid synthesis inhibitors, primary screen (AID 463173); conditions: S. aureus RN4220 wild type/DeltatarO growth, OD600, 18 h, screened at 18.75 µg/mL (by protocol)
Screen size: about 52,000 compounds; about 1,700 (3.3%) were called active. Rule as the data show it: active = survival mostly below about 52% (no sharp cut-off); inactive = mostly above about 56%. This is one part of a sample in which actives are shown more often than they occur.
Outcome codes: TRUE = active, FALSE = inactive

1. COc1ccc2c(Sc3ccc(Cl)cc3)c(C(=O)NCCCN3CCCCC3)[nH]c2c1 | TRUE
2. CCc1ccc(OCC(=O)Nc2ccc(Cl)c(-c3nc4cc(C)cc(C)c4o3)c2)cc1 | FALSE
3. CCN(CC)S(=O)(=O)c1ccc(C(=O)NCCSc2c(-c3ccc(OC)cc3)[nH]c3ccccc23)cc1 | FALSE
4. CN1CCN(CCCNC(=O)c2cnn(-c3ccc(F)cc3)c2-n2cccc2)CC1 | FALSE
5. CCCCNC(=O)C1CCN(S(=O)(=O)CCC)CC1 | FALSE
6. COc1ccc2c(CNCc3cccs3)c(C(=O)O)n(Cc3ccccc3F)c2c1 | FALSE
7. CN1/C(=C2/SC(=O)N(Cc3ccccc3)C2=O)Sc2ccccc21 | FALSE
8. COc1ccc(-c2cc(-c3ccccc3)nc(SCC(=O)Nc3ccccc3C)c2C#N)cc1 | FALSE
9. COc1ccc2c(Sc3ccc(Cl)cc3)c(C(=O)N3CCCCC3)[nH]c2c1 | FALSE
10. Cc1ccc(C)c(Cn2c3ccccc3c3cnn(CC(=O)NCCC4=CCCCC4)c(=O)c32)c1 | FALSE
11. COc1ccc(CNC(=O)CCc2c(C)nc3nc(CNC(=O)OC(C)(C)C)nn3c2C)cc1 | FALSE
12. COCCCNC(=O)CCn1c(=O)c2ccccc2n(CC(=O)Nc2c(C)cc(C)cc2C)c1=O | FALSE
13. CCn1ccc2cc(S(=O)(=O)N3CCCN(C(=O)NCC(=O)OC)CC3)ccc21 | FALSE
14. Cc1cccc(C(=O)Nc2ccccc2-c2nc(-c3ccccc3)no2)c1 | FALSE
15. CCn1c2c(c(=O)n3ncc(C(=O)Nc4ccc(F)c(Cl)c4)c13)CN(Cc1ccc(OC)cc1)CC2 | TRUE
16. COCCCNC(=O)c1[nH]c2ccccc2c1Sc1ccc(C)cc1 | FALSE
17. O=C(NCCCN1CCCCC1)c1[nH]c2ccccc2c1Sc1ccc(Cl)cc1 | TRUE
18. COc1ccc(OC)c(-n2cnc3cc(C(=O)NC4CCCC4)ccc32)c1 | FALSE
19. O=C(CN1C(=O)CSC1=O)N1CCCCC1 | FALSE
20. CCn1c2c(c(=O)n3ncc(C(=O)Nc4ccc(Cl)cc4C)c13)CN(Cc1ccc(OC)cc1)CC2 | FALSE
21. O=C(CN1CCC(n2cnc3cc(F)ccc32)CC1)Nc1ccccc1Br | FALSE

---

Documented survival across a set of compounds
test system: Wild type; assay: S. aureus survival, RN4220 and DeltatarO strains – OD600, teichoic acid synthesis inhibitors, primary screen (AID 463173); settings: S. aureus RN4220 wild type/DeltatarO growth, OD600, 18 h, stronger effect = lower value, screened at 18.75 µg/mL (by protocol)
About 1,700 (3.3%) of roughly 52,000 compounds were called active. Many of the other results were omitted from the sample, so actives are more common in it than they were.
result type: survival (%)

1) COc1cccc(CNC(=O)CCS(=O)(=O)c2ccc3c(c2)CC(C)N3C(=O)C2CC2)c1 (stereo not drawn) | -3
2) CCN(CCCNC(=O)CN1N=C(c2ccccc2)CCC1=O)c1cccc(C)c1 | 136
3) COC(=O)c1cc2sccc2n1Cc1ccc(F)cc1 | 135
4) COc1ccc(Cl)cc1NC(=O)c1cnc(SC)nc1-c1ccccc1 | 22
5) Oc1ccc(-c2nc(-c3ccccc3)c(-c3ccc(Br)cc3)[nH]2)cc1 | -2
6) COc1ccc2c(c1)Cc1sc(NC(=O)c3cccc(F)c3)nc1-2 | 69
7) COc1ccc(CCNC(=O)Cn2c(-c3ccc(F)cc3)cc(C(C)=O)c2C)cc1OC | 54
8) Cc1cc(C)n2nc(CNS(=O)(=O)c3ccc(F)cc3)nc2n1 | 88
9) COc1cccc(-c2cc(C(F)(F)F)nc(NCCc3ccc(OC)c(OC)c3)n2)c1 | 25
10) O=C(NCc1cccc(Cl)c1)c1cc2ccc3cccnc3c2[nH]1 | 82
11) COc1ccc2c(c1)Cc1sc(NC(=O)c3cccc(C)c3)nc1-2 | 7
12) Cc1nc2ccccc2c(=O)n1-c1ccc(NC(=O)c2cccc([N+](=O)[O-])c2)cc1 | 59
13) COc1ccccc1CNC(=O)CCS(=O)(=O)c1ccc2c(c1)CC(C)N2C(=O)C1CC1 (stereo not drawn) | 0
14) COc1ccc(CNc2nc(-c3ccc(OC)c(OC)c3)cc(C(F)(F)F)n2)cc1 | 27
15) CSc1nc2sc3c(c2c(=O)n1-c1ccc(C)cc1)CCCC3 | 51
16) COc1ccc2c(c1)-c1nc(NC(=O)c3ccc(Cl)cc3)sc1CC2 | 93
17) CCc1ccc(C2C(C(=O)Nc3ccc(Cl)cc3)=C(C)Nc3ncnn32)cc1 (stereo not drawn) | 59
18) CSc1ncc(C(=O)NCc2cccc(F)c2)c(-c2ccccc2)n1 | 82
19) COc1ccc(CNC(=O)Cn2ncc3c(=O)oc4ccc(C)cc4c32)c(OC)c1 | 113
20) C=CCn1c(SC(C)C)nc2sc3c(c2c1=O)CCCC3 | 108
21) CCCCN(CCCNC(=O)CN1N=C(c2ccccc2)CCC1=O)c1ccccc1 | 72
22) COc1ccc(CNC(=O)CCS(=O)(=O)c2ccc3c(c2)CC(C)N3C(=O)C2CC2)cc1 (stereo not drawn) | 76
23) COc1ccccc1CCNC(=O)C(C)Sc1nc(-c2ccccc2)cc(C(F)(F)F)n1 (stereo not drawn) | 53
24) Cc1ccc2c(c1)N(C(=O)N1CCC(C(=O)Nc3cccc(F)c3)CC1)CCO2 | 70
25) COc1ccc(NC(=O)CSC2=Nc3ccccc3C3=NC(CCC(=O)NCc4ccco4)C(=O)N23)cc1 (stereo not drawn) | 60
26) CC1CCCCN1C(=O)CSc1n[nH]c(-c2ccccc2Cl)n1 (stereo not drawn) | 72
27) COc1ccc(CNC(=O)CSc2nc(-c3ccc(OC)cc3)cc(C(F)(F)F)n2)cc1 | 93
28) CCCCOc1ccc(S(=O)(=O)N2CCN(c3ccccc3OCC)CC2)cc1 | 112
29) CSc1ncc(C(=O)NCc2ccc(F)cc2)c(-c2ccccc2)n1 | 87
30) CCc1ccc(CN(Cc2ccco2)C(=O)COc2ccccc2Cl)cc1 | 85
31) CCN(CCCNC(=O)CN1N=C(c2ccccc2)CCC1=O)c1ccccc1 | -6
32) COC(=O)c1cc2sc(C)cc2n1Cc1cccc(OC)c1 | 0
33) CSc1ncc(C(=O)NCc2ccc(C)cc2)c(-c2ccccc2)n1 | -2
34) COc1ccc2c(c1)-c1nc(NC(=O)c3ccccc3F)sc1CC2 | -1
35) CCn1c(CNc2cccc(Cl)c2)nnc1SCc1ccccc1 | 105
36) CC1=C(C(=O)NCCc2ccc(Cl)cc2)C2(CCCCC2)OC1=O | 73
37) CCCCN(CCCNC(=O)CN1N=C(c2ccc(C)cc2)CCC1=O)c1ccccc1 | 101
38) COc1ccc(C)cc1NC(=O)NCc1cccn1Cc1ccccc1 | 98
39) COc1ccc(C(=O)Nc2nc3c(s2)Cc2cc(OC)ccc2-3)cc1 | 72
40) Cc1ccc(C2=NN(CC(=O)NCCCN(CC(C)C)CC(C)C)C(=O)CC2)cc1 | 84
41) C#CCSc1nc2sc3c(c2c(=O)n1Cc1ccccc1)CCCC3 | 44
42) CSc1nc2sc3c(c2c(=O)n1-c1ccccc1C)CCCC3 | 99
43) COC(=O)c1cc2sc(C)cc2n1Cc1ccc(Br)cc1F | 76

---

system: Wild type; experiment: S. aureus survival, RN4220 and DeltatarO strains – OD600, teichoic acid synthesis inhibitors, primary screen (AID 463173); conditions: S. aureus RN4220 wild type/DeltatarO growth, OD600, 18 h, stronger effect = lower value, screened at 18.75 µg/mL (by protocol)
Among all 52,000 compounds or so, about 1,700 (3.3%) were called active. The full list was thinned out, with actives kept by preference.
result type: survival (%)

1) N#Cc1c(NC(=O)CN2CCCCC2)sc2c1CCC2 | 109
2) CC1CCc2onc(C(=O)N3CCN(c4ccccc4)CC3)c2C1 (stereo not given) | 121
3) O=C(c1noc2c1CCCCC2)N1CCN(c2ccc(Cl)cc2)CC1 | 73
4) COc1ccc(S(=O)(=O)c2c(Nc3ccc(C)cc3)sc(C(=O)c3ccc4c(c3)OCO4)c2N)cc1 | 143
5) CCOC(=O)c1ccc(N2CCN(c3cccc(OC)c3)CC2)c(NC(=O)Nc2ccc(OCC)cc2)c1 | -6
6) CC1CCc2onc(C(=O)N3CCN(c4cccc(Cl)c4)CC3)c2C1 (stereo not given) | 88
7) CCOC(=O)c1ccc(N2CCN(c3ccc(F)cc3)CC2)c(NC(=O)Nc2cccc(OC)c2)c1 | 67
8) CC1CCc2onc(C(=O)N3CCN(c4cccc(C(F)(F)F)c4)CC3)c2C1 (stereo not given) | 10
9) O=C(c1cc2ccc3cccnc3c2[nH]1)N1CCN(c2ccc(Cl)cc2)CC1 | 91
10) CCOC(=O)c1ccc(N2CCN(c3cccc(Cl)c3)CC2)c(NC(=O)Nc2ccc(Cl)cc2)c1 | 76
